Target: type l K+ channel (human) (Homo sapiens)
Construct: Native channels; endogenous in cells
Sequence (P48547 whole entry): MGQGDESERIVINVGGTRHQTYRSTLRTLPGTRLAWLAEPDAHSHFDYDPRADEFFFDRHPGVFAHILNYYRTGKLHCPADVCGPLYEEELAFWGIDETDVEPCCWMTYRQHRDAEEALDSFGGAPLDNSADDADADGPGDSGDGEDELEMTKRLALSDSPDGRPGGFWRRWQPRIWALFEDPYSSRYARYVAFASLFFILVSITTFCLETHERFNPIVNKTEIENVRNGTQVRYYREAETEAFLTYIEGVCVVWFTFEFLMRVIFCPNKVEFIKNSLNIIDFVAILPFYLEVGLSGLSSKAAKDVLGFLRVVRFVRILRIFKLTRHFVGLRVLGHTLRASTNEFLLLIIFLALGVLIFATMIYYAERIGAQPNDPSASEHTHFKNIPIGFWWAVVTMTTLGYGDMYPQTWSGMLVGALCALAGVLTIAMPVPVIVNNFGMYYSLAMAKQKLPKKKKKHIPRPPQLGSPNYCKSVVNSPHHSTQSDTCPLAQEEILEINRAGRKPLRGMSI
Assay: Patch-clamp pharmacology of type l K+ channels in human Louckes lymphoma cells
Settings: human Louckes lymphoma cells; read-out: half-blocking dose
Procedure: For the two-electrode voltage-clamp experiments, cells were bathed in oocyte Ringer solution containing 96mM NaCl, 2 mM KCl, 1.8 mM CaCl2, 1 mM MgCl2, 5 mM N-2-hydroxyethylpiperazine-N'-2-ethanesulfonic acid (HEPES), and adjusted to pH 7.5 with NaOH. The pipette solution was 3 M KCl. […]
measurementKind: IC50 (µM)
State the answer as a number, implicitly in µM.

Look up and report measured IC50 for this entry: CC[N+](CC)(CC)CC
100

---

Target: type n K+ channel (human) (Homo sapiens)
Construct: Native channels; endogenous in cells; host or cells: human T cells
Sequence (P22001 whole entry): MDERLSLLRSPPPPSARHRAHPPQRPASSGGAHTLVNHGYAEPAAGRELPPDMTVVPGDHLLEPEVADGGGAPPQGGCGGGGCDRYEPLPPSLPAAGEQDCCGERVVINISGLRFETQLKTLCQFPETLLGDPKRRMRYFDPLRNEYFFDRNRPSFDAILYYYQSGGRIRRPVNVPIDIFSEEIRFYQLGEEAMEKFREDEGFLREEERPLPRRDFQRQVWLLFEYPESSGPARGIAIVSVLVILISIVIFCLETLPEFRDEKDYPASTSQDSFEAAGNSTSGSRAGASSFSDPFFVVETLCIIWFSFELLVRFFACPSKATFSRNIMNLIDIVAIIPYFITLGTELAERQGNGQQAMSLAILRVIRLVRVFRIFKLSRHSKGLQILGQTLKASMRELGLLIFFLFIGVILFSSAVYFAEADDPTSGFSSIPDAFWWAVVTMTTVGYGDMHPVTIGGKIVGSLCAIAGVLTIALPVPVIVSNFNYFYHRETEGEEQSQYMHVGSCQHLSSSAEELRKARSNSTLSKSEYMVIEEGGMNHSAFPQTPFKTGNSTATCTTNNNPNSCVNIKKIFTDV
Assay: Patch-clamp pharmacology of type n K+ channels in human T cells
Format: cell-based
Settings: first value; data from this paper; read-out: apparent dissociation constant Kd, from reduction of the integral under the current trace
measurementKind: Kd
The answer consists of two parts: a number and, after it, its unit.

Fill in Kd for C=C[C@H]1C[N@@]2CC[C@H]1C[C@H]2[C@H](O)c1ccnc2ccc(OC)cc12 tested with type n K+ channel (human) (Homo sapiens).
13 µM

---

Target: type l K+ channel (mouse) (Mus musculus, UniProt P15388)
Construct: Native channels; endogenous in cells; host or cells: mouse T cells (CD4-CD8- T cells of autoimmune strains such as MRL-lpr; normal cytotoxic T cells)
Assay: Patch-clamp pharmacology of type l K+ channels in mouse T cells
Assay type: cell-based
Settings: first value; data from this paper; read-out: apparent dissociation constant Kd, from reduction of the integral under the current trace
Procedure: A gigohm seal patch-clamp technique was employed [Hamill, et al., Pflugers Arch. […] Cells were separated and stained as described infra. Maximum K^+ conductances (gk) Of CD4^- CD8^- Thy-l.2^+ T cells were determined from the maximum peak K^+ current elicited at +40 mV (holding potential -80 mV), assuming a reversal potential for K^+ of -80 mV. All experiments were done at room temperature (22° to 26° C.). […]
measurementKind: pKd
// returns pKd (minus log10 of molar concentration), number only

# return pKd of C=C[C@H]1C[N@@]2CC[C@H]1C[C@H]2[C@H](O)c1ccnc2ccc(OC)cc12 [quinine] (system: type l K+ channel (mouse) (Mus musculus, UniProt P15388))
5.00

---

Target: type l K+ channel (mouse) (Mus musculus, UniProt P15388)
Construct: Native channels; endogenous in cells; normal cytotoxic T cells)
Sequence (P15388 1-511): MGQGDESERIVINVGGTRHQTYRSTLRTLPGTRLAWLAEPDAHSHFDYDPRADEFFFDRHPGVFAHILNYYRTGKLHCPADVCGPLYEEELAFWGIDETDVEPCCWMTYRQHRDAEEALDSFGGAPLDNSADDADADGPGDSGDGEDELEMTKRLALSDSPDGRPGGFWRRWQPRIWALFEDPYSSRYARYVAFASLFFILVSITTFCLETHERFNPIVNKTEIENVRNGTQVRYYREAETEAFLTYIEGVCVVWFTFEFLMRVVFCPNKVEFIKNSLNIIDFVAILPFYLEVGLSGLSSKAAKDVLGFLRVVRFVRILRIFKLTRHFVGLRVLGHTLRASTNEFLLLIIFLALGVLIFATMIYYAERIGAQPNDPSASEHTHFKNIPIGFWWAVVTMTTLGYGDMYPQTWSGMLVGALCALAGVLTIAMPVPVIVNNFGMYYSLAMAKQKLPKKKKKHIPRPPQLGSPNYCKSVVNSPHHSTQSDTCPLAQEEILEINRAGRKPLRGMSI
Assay: Patch-clamp pharmacology of type l K+ channels in mouse T cells
measurementKind: IC50 (µM)
Quick reminder: number only, in µM, skip the unit.

Provide only the value of recorded IC50 for CC[N+](CC)(CC)CC
100

---

Target: mKv3.1b K+ channels (Mus musculus, UniProt P15388)
Construct: expressed in transfected cells; host or cells: Xenopus oocytes injected with mKv3.1b mRNA
Test: cell-based
Type: cell-based
Conditions: 200 ms steps from -80 mV to 40 mV; first value; read-out: apparent dissociation constant Kd, from reduction of the integral under the current trace
Experimental: For transcription, the plasmid was linearized by digestion with SacI in the polylinker. All experiments were done at room temperature (22°-26°C.). The pipette solution was 3 M KCl. […] CTX was purchased from Latoxan (IBF-Biotechnics, Inc., Columbia, Md.). The patch-clamp amplifier (List L/M-EPC 7, Adams and List Associates, Ltd., Great Neck, N.Y.) was used in the voltage-clamp mode without series resistance compensation. […]
measurementKind: Kd (µM)
Number in µM, nothing else.

For the molecule C=C[C@H]1C[N@@]2CC[C@H]1C[C@H]2[C@H](O)c1ccnc2ccc(OC)cc12 , give its reported Kd.
4

---

Biological target: type l K+ channel (mouse) (Mus musculus, UniProt P15388)
Construct: Native channels; endogenous in cells; host or cells: mouse T cells (CD4-CD8- T cells of autoimmune strains such as MRL-lpr; normal cytotoxic T cells)
Sequence (P15388 1-511): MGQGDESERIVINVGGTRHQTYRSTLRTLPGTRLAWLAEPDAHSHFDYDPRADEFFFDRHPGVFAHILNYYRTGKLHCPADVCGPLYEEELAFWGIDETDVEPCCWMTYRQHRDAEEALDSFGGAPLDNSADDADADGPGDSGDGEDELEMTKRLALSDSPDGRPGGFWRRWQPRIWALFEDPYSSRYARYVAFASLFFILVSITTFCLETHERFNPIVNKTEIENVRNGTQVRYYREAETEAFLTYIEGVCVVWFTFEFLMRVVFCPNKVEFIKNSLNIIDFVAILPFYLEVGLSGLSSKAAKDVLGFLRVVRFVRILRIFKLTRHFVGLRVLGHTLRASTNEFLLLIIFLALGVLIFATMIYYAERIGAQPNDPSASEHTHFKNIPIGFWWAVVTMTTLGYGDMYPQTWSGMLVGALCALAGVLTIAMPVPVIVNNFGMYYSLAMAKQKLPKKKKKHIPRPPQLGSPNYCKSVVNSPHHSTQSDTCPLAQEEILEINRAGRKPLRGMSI
Test: Patch-clamp pharmacology of type l K+ channels in mouse T cells
Format: cell-based
Conditions: second value; data from this paper; read-out: apparent dissociation constant Kd, from reduction of the peak current amplitude
measurementKind: Kd (µM)
Express your answer in µM, writing the number without its unit.

Query Kd for C=C[C@H]1C[N@@]2CC[C@H]1C[C@H]2[C@H](O)c1ccnc2ccc(OC)cc12
19

---

Biological target: mKv3.1b K+ channels (Mus musculus, UniProt P15388)
Construct: expressed in transfected cells; host or cells: Xenopus oocytes injected with mKv3.1b mRNA
Experiment: cell-based
Type: cell-based
Conditions: outside-out oocyte patch, pulses to +40 mV from -80 mV; read-out: Blockers, Kd / half-blocking dose
measurementKind: Kd (µM)
Give your result in µM as a bare value.

Retrieve Kd on mKv3.1b K+ channels (Mus musculus, UniProt P15388); query CC[N+](CC)(CC)CC
150

---

Molecular target: type l K+ channel (human) (Homo sapiens)
Construct: Native channels; endogenous in cells; host or cells: Louckes human B cell lymphoma line
Experiment: Patch-clamp pharmacology of type l K+ channels in human Louckes lymphoma cells
Format: cell-based
Details: Louckes cells; read-out: Blockers, Kd / half-blocking dose
measurementKind: pKd
The read-out pKd is expressed as -log10 of concentration in moles per litre.

State measured pKd of the molecule CC[N+](CC)(CC)CC [TEA, tetraethylammonium] with type l K+ channel (human) (Homo sapiens).
3.92

---

Target: type n K+ channel (mouse) (Mus musculus, UniProt P16390)
Construct: Native channels; endogenous in cells
Sequence (P16390 whole entry): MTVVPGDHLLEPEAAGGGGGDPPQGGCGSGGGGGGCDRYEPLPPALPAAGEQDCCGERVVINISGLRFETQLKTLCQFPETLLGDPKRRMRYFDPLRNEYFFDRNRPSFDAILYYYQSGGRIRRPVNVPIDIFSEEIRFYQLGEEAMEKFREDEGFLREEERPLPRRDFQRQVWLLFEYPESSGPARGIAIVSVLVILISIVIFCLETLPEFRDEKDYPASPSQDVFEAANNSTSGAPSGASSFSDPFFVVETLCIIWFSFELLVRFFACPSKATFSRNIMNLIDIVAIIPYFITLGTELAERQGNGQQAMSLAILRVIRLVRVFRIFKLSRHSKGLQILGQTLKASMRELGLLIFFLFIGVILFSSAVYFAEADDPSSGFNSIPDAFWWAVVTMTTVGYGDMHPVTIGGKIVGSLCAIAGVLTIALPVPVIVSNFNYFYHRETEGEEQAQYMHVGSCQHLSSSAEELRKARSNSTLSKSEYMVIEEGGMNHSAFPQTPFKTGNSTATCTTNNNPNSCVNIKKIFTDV
Test: Patch-clamp pharmacology of type n K+ channels in mouse T cells
measurementKind: pIC50
Bear in mind: pIC50 is minus log10 of a mol/L concentration; give just that figure.

Return reported pIC50. Input compound: CC[N+](CC)(CC)CC [TEA, tetraethylammonium]
2.00
